# IC50 per entry
Test system: 883617-216-R-J1-PDC complex spheroid viability
Test Summary: Anticancer human tumor 883617-216-R-J1-PDC patient-derived bladder carcinoma cell line growth inhibition [POLQ]
Assay Context: curve of compound

Recorded IC50, per entry:
# Compound, Outcome Measure, Endpoint Result
measured = [
    ("Nc1ccn(C2OC(CO)C(O)C2(F)F)c(=O)n1 (stereo not given)", "IC50", "< 0.0316 µM"),
    ("C=CC(=O)N1CCN(c2nc(=O)n(-c3c(C)ccnc3C(C)C)c3nc(-c4c(O)cccc4F)c(F)cc23)C(C)C1 (stereo not given)", "IC50", "> 10 µM"),
    ("O=c1[nH]cc(F)c(=O)[nH]1", "IC50", "> 10 µM"),
    ("CNCc1ccc(-c2[nH]c3cc(F)cc4c3c2CCNC4=O)cc1", "IC50", "> 10 µM"),
    ("O=C(Nc1ccc(O)c(NS(=O)(=O)c2ccc(F)cc2)c1)c1ccc(-c2ccccc2)cc1", "IC50", "> 10 µM"),
    ("C#Cc1c(F)ccc2cc(O)cc(-c3ncc4c(N5CC6CCC(C5)N6)nc(OCC56CCCN5CC(F)C6)nc4c3F)c12 (stereo not given)", "IC50", "> 10 µM"),
    ("O=C(c1cc(Cc2n[nH]c(=O)c3ccccc23)ccc1F)N1CCN(C(=O)C2CC2)CC1", "IC50", "> 10 µM"),
    ("COc1cc2cc(C(=O)CCC(=O)O)sc2cc1OC", "IC50", "> 10 µM"),
]

Answer with the recorded IC50 of Cn1ncnc1[C@H]1c2n[nH]c(=O)c3cc(F)cc(c23)N[C@@H]1c1ccc(F)cc1 only.
> 0.1 µM

Answer with the recorded IC50 of CC(C)n1c(=O)n(C)c2cnc3cc(F)c(-c4ccc(OCCCN5CCCCC5)nc4)cc3c21 only.
> 10 µM

* * *

Tested on: 883617-216-R-J1-PDC complex spheroid viability
Test Summary: Anticancer human tumor 883617-216-R-J1-PDC cell line growth inhibition [POLQ]; active = viability on the fitted dose curve at most 10% of control; inactive = the rest;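 further: spheroids exposed to compounds for seven days before readout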
Assay Context: second compound 10 µM; first compound 10 µM
Give one outcome, nothing more. List: active, inactive

Check out these entries, answers already filled in.
# Molecule, Discrete Label
rows = [
    ("COc1cccc2c1C(=O)c1c(O)c3c(c(O)c1C2=O)CC(O)(C(=O)CO)CC3OC1CC(N)C(O)C(C)O1 (stereo not drawn) + COC1C(OC(N)=O)C(O)C(Oc2ccc3c(O)c(NC(=O)c4ccc(O)c(CC=C(C)C)c4)c(=O)oc3c2C)OC1(C)C", "active"),
    ("CC(C)n1c(=O)n(C)c2cnc3cc(F)c(-c4ccc(OCCCN5CCCCC5)nc4)cc3c21 + Nc1ccc(C#CCN(C(=O)Cc2ncc(C(F)(F)F)cc2C(F)(F)F)c2ccc(F)cc2)nn1", "inactive"),
]

Please examine the following record next.
Given COc1ccc([C@@H](O)c2cc(-c3ncnc4cc(N5CCOCC5)ccc34)c(F)cc2Cl)nn1 + Cc1cccc(N(C)C(=O)C2C(O)CCN2c2nc(C)cc(C(F)(F)F)c2C#N)c1 , state the outcome it received in this test.
inactive

* * *

Tested on: 883617-216-R-J1-PDC complex spheroid viability
Test Summary: Anticancer human tumor 883617-216-R-J1-PDC cell line growth inhibition [POLQ];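 further: spheroids exposed to compounds for seven days before readout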;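 on viability, T/C: 100% = DMSO vehicle control viability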
Assay Context: second compound 0.1 µM; first compound 0.0316 µM; stronger effect = lower value
Outcome Measure: viability, T/C

Recorded viability, T/C, per entry:
# Compound, viability, T/C
data = [
    ("CC[C@@]1(O)C(=O)OCc2c1cc1n(c2=O)Cc2cc3c(CN(C)C)c(O)ccc3nc2-1 + Cc1cccc(N(C)C(=O)C2C(O)CCN2c2nc(C)cc(C(F)(F)F)c2C#N)c1", "58%"),
    ("O=C(Nc1ccc(O)c(NS(=O)(=O)c2ccc(F)cc2)c1)c1ccc(-c2ccccc2)cc1 + Cc1cccc(N(C)C(=O)C2C(O)CCN2c2nc(C)cc(C(F)(F)F)c2C#N)c1", "98.6%"),
]

Give viability, T/C; test system 883617-216-R-J1-PDC complex spheroid viability; compound C=CC(=O)N1CCN(c2nc(=O)n(-c3c(C)ccnc3C(C)C)c3nc(-c4c(O)cccc4F)c(F)cc23)C(C)C1 (stereo unspecified) + COC1C(OC(N)=O)C(O)C(Oc2ccc3c(O)c(NC(=O)c4ccc(O)c(CC=C(C)C)c4)c(=O)oc3c2C)OC1(C)C
72.5%

Give viability, T/C; test system 883617-216-R-J1-PDC complex spheroid viability; compound CCc1c2c(nc3ccc(O)cc13)-c1cc3c(c(=O)n1C2)COC(=O)[C@]3(O)CC + Cc1cccc(N(C)C(=O)C2C(O)CCN2c2nc(C)cc(C(F)(F)F)c2C#N)c1
57.9%

Give viability, T/C; test system 883617-216-R-J1-PDC complex spheroid viability; compound CC1COCCN1c1cc(-c2ccnn2C)c2ccnc(-c3ccn[nH]3)c2n1 (stereo unspecified) + COC1C(OC(N)=O)C(O)C(Oc2ccc3c(O)c(NC(=O)c4ccc(O)c(CC=C(C)C)c4)c(=O)oc3c2C)OC1(C)C
83.2%

Give viability, T/C; test system 883617-216-R-J1-PDC complex spheroid viability; compound C=CCn1c(=O)c2cnc(Nc3ccc(N4CCN(C)CC4)cc3)nc2n1-c1cccc(C(C)(C)O)n1 + COC1C(OC(N)=O)C(O)C(Oc2ccc3c(O)c(NC(=O)c4ccc(O)c(CC=C(C)C)c4)c(=O)oc3c2C)OC1(C)C
98.9%

Give viability, T/C; test system 883617-216-R-J1-PDC complex spheroid viability; compound CC1COCCN1c1cc(-c2ccnn2C)c2ccnc(-c3ccn[nH]3)c2n1 (stereo unspecified) + Cc1cccc(N(C)C(=O)C2C(O)CCN2c2nc(C)cc(C(F)(F)F)c2C#N)c1
72.7%

Give viability, T/C; test system 883617-216-R-J1-PDC complex spheroid viability; compound CC1COCCN1c1cc(C2(O)CC3CCC(C2)O3)c2cnn(-c3ccn[nH]3)c2n1 (stereo unspecified) + COC1C(OC(N)=O)C(O)C(Oc2ccc3c(O)c(NC(=O)c4ccc(O)c(CC=C(C)C)c4)c(=O)oc3c2C)OC1(C)C
66.8%

Give viability, T/C; test system 883617-216-R-J1-PDC complex spheroid viability; compound COc1cc2cc(C(=O)CCC(=O)O)sc2cc1OC + Nc1ccc(C#CCN(C(=O)Cc2ncc(C(F)(F)F)cc2C(F)(F)F)c2ccc(F)cc2)nn1
112%

Give viability, T/C; test system 883617-216-R-J1-PDC complex spheroid viability; compound COc1cccc(OCCCN)c1-c1cc(Nc2cnc(C#N)cn2)n[nH]1 + Nc1ccc(C#CCN(C(=O)Cc2ncc(C(F)(F)F)cc2C(F)(F)F)c2ccc(F)cc2)nn1
55.2%

Give viability, T/C; test system 883617-216-R-J1-PDC complex spheroid viability; compound CC1COCCN1c1cc(C2(S(C)(=N)=O)CC2)nc(-c2ccnc3[nH]ccc23)n1 (stereo unspecified) + COC1C(OC(N)=O)C(O)C(Oc2ccc3c(O)c(NC(=O)c4ccc(O)c(CC=C(C)C)c4)c(=O)oc3c2C)OC1(C)C
91.1%

* * *

Test system: 883617-216-R-J1-PDC complex spheroid viability
Test Summary: Anticancer human tumor 883617-216-R-J1-PDC cell line growth inhibition [POLQ];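 further: spheroids exposed to compounds for seven days before readout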
Assay Context: curve of first compound; second compound 0.0316 µM
Procedure: Multicellular complex tumor spheroid response to Polymerase (POL) inhibitors (novobiocin, ART-558, RP6685) in combination with a variety of drugs and investigational agents in selected tumor cell lines The POL inhibitors (novobiocin, ART-558, and RP6685) were evaluated both individually and in combination with standard of care and investigational anticancer small molecules within a complex spheroid model of solid tumors. . […]
Outcome Measure: IC50

# Compound, IC50
records = [
    ("CC1COCCN1c1cc(-c2ccnn2C)c2ccnc(-c3ccn[nH]3)c2n1 (stereo not given) + COC1C(OC(N)=O)C(O)C(Oc2ccc3c(O)c(NC(=O)c4ccc(O)c(CC=C(C)C)c4)c(=O)oc3c2C)OC1(C)C", "0.297 µM"),
    ("CCc1cc2c(N3CCc4c(cc(Cn5ccnc5)cc4-c4cn(C)nc4C(F)(F)F)C3=O)cc(C)nc2c(OC)n1 + COC1C(OC(N)=O)C(O)C(Oc2ccc3c(O)c(NC(=O)c4ccc(O)c(CC=C(C)C)c4)c(=O)oc3c2C)OC1(C)C", "> 10 µM"),
    ("COc1cc(C2c3cc4c(cc3C(OC3OC5COC(C)OC5C(O)C3O)C3COC(=O)C23)OCO4)cc(OC)c1O (stereo not given) + Cc1cccc(N(C)C(=O)C2C(O)CCN2c2nc(C)cc(C(F)(F)F)c2C#N)c1", "> 10 µM"),
    ("CCCS(=O)(=O)Nc1ccc(F)c(C(=O)c2c[nH]c3ncc(-c4ccc(Cl)cc4)cc23)c1F + Nc1ccc(C#CCN(C(=O)Cc2ncc(C(F)(F)F)cc2C(F)(F)F)c2ccc(F)cc2)nn1", "9.41 µM"),
    ("O=C(Nc1ccc(O)c(NS(=O)(=O)c2ccc(F)cc2)c1)c1ccc(-c2ccccc2)cc1 + COC1C(OC(N)=O)C(O)C(Oc2ccc3c(O)c(NC(=O)c4ccc(O)c(CC=C(C)C)c4)c(=O)oc3c2C)OC1(C)C", "> 10 µM"),
    ("CC1COCCN1c1cc(-c2ccnn2C)c2ccnc(-c3ccn[nH]3)c2n1 (stereo not given) + Nc1ccc(C#CCN(C(=O)Cc2ncc(C(F)(F)F)cc2C(F)(F)F)c2ccc(F)cc2)nn1", "0.292 µM"),
]

Answer with the recorded IC50 of CNCc1ccc(-c2[nH]c3cc(F)cc4c3c2CCNC4=O)cc1 + Nc1ccc(C#CCN(C(=O)Cc2ncc(C(F)(F)F)cc2C(F)(F)F)c2ccc(F)cc2)nn1 only.
> 10 µM

Answer with the recorded IC50 of COc1cccc2c1C(=O)c1c(O)c3c(c(O)c1C2=O)CC(O)(C(=O)CO)CC3OC1CC(N)C(O)C(C)O1 (stereo not given) + Nc1ccc(C#CCN(C(=O)Cc2ncc(C(F)(F)F)cc2C(F)(F)F)c2ccc(F)cc2)nn1 only.
0.44 µM

Answer with the recorded IC50 of O=C(Nc1ccc(O)c(NS(=O)(=O)c2ccc(F)cc2)c1)c1ccc(-c2ccccc2)cc1 + Cc1cccc(N(C)C(=O)C2C(O)CCN2c2nc(C)cc(C(F)(F)F)c2C#N)c1 only.
> 10 µM

Answer with the recorded IC50 of COc1cc(C2c3cc4c(cc3C(OC3OC5COC(C)OC5C(O)C3O)C3COC(=O)C23)OCO4)cc(OC)c1O (stereo not given) + Nc1ccc(C#CCN(C(=O)Cc2ncc(C(F)(F)F)cc2C(F)(F)F)c2ccc(F)cc2)nn1 only.
> 10 µM

Source listed as PubChem BioAssay AID1963833.
